system under test: hEBI2 (Homo sapiens, UniProt P32249)
Sequence (P32249 whole entry): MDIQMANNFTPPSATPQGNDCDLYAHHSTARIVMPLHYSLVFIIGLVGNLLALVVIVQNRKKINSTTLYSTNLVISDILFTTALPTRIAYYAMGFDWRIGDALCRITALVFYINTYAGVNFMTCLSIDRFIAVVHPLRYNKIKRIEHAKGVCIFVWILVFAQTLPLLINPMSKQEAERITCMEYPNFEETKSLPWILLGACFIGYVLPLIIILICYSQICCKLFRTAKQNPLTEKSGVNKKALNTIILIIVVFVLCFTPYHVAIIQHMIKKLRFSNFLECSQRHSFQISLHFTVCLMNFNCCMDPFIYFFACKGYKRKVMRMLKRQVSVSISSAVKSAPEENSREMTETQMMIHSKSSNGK
protocol: GTPγS assay on EBI2 membranes
Type: biochemical
Set-up: expressed in transfected cells; host or cells: CHO-K1 expressing apoaequorin (CHO-Aeq) with Gqi5; line E2
test parameters: n = 3-4; read-out: GTPgS EC50
Protocol: The cell suspension was then homogenized using a Dounce homogenizer (10 strokes) with a driller. After centrifugation at 110000×g for 45 minutes and removal of the supernatant, pellets were resuspended in sucrose buffer (50 mM Tris pH7.2, 250 mM sucrose, 10% glycerol) by vortexing. […] The supernatant was discarded, the pellet resuspended in sucrose buffer, protein concentration determined, aliquoted and frozen at −80° C. […]
recorded metric: pEC50
Schema: pEC50 number; meaning minus log10 of the concentration expressed in molar units.

molecule	pEC50
CC(CO)CCC[C@@H](C)[C@H]1CC[C@H]2[C@@H]3[C@@H](O)C=C4C[C@@H](O)CC[C@]4(C)[C@H]3CC[C@]12C (some centres unmarked) [7b,27DHC, cholest-5-ene-3b,7b,27-triol]	6.90

Qu. Give the measured pEC50 of C[C@H](CCCC(C)(C)O)[C@H]1CC[C@H]2[C@@H]3[C@@H](O)C=C4C[C@@H](O)CC[C@]4(C)[C@H]3CC[C@]12C [7b,25DHC, cholest-5-ene-3b,7b,25-triol] .
Ans. 6.66
